B1: scFv; the commonest letter at each place (parent)
chain 1: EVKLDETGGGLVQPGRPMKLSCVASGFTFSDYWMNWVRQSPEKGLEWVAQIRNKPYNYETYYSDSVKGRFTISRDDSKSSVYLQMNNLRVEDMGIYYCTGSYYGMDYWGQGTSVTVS
chain 2: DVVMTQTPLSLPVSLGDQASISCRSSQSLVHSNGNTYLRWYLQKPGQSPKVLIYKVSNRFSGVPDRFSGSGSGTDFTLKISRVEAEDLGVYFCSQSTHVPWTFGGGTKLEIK

# Variants of: B1
# ASSAY DETAILS: yeast surface expression (ratio to wild type); higher = more expressed
# CONDITIONS USED: format: scFv 4-4-20, heavy + light
RECORDED ENDPOINT: yeast surface expression
Lab note: jot down the number only; don't add units.

Quote yeast surface expression reported for chain 1 M34I V37S please.
0.776

Quote yeast surface expression reported for chain 1 W33M M34I please.
0.708

Quote yeast surface expression reported for chain 1 G100Y please.
0.606

Quote yeast surface expression reported for chain 1 G100A Y103K G109T please.
0.753

Quote yeast surface expression reported for chain 1 Y32K W33I please.
0.763

Quote yeast surface expression reported for chain 1 G100C S101W please.
0.507

Quote yeast surface expression reported for chain 1 Y103C G104H please.
0.403

Quote yeast surface expression reported for chain 1 T28F please.
0.842

Quote yeast surface expression reported for chain 1 Y32V please.
1.02

Quote yeast surface expression reported for chain 1 Y32L M34A please.
0.634

Quote yeast surface expression reported for chain 1 W108N please.
0.468

Quote yeast surface expression reported for chain 1 G104W G109R please.
0.171

Quote yeast surface expression reported for chain 1 W33N N35M please.
0.792

Quote yeast surface expression reported for chain 1 D31L Y32N please.
0.847

Quote yeast surface expression reported for chain 1 T28A W33I please.
1.15

Quote yeast surface expression reported for chain 1 T28C M34L W36M please.
0.657

Quote yeast surface expression reported for chain 1 Y103L G109S please.
0.855

Quote yeast surface expression reported for chain 1 Y32S W36F please.
0.853

Quote yeast surface expression reported for chain 1 S30R N35R please.
0.535

Quote yeast surface expression reported for chain 1 S101K Y107V please.
0.507

Quote yeast surface expression reported for chain 1 Y32R M34W V37M please.
0.728

Quote yeast surface expression reported for chain 1 G104V W108A please.
0.141
